TESTED TARGET: CB1 cannabinoid receptor (Rattus norvegicus, UniProt P20272)
Construct: membranes were prepared from rat forebrain membranes; from tissue; host or cells: rat forebrain membranes
Sequence (P20272 whole entry): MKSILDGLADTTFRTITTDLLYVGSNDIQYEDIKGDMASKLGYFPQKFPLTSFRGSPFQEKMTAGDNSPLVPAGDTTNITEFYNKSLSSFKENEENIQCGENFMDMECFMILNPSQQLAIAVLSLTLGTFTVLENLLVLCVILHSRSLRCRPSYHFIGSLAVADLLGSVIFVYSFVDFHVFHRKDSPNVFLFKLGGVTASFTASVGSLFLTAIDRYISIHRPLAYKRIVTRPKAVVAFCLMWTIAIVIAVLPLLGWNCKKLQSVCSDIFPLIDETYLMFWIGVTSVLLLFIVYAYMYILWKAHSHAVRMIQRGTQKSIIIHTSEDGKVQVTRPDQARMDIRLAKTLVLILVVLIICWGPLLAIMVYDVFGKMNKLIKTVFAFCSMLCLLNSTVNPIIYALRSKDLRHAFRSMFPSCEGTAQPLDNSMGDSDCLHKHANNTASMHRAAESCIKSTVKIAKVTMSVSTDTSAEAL
ASSAY PROCEDURE: biochemical
Format: binding
PARTICULARS: CB1 Ki, Table 6; rat forebrain membranes, 0.8 nM [3H] CP-55,940
Overview of reported Ki across a group of molecules:
Express your answer in nM, writing the number without its unit.

[
  {
    "SMILES TEXT": "N=C(S)c1ccc(-n2c(-c3ccc(Cl)cc3Cl)nc(C(=O)NN3CCCCC3)c2CO)cc1",
    "UNITS LABEL": "nM",
    "RESULT VALUE": 47.6
  }
]

Q: Sample `Cc1c(NC(=O)NC2CCCCC2)nc(-c2ccc(Cl)cc2Cl)n1-c1ccc(I)cc1` — what was its Ki?
A: 1.2

Q: Consider the molecule `O=C(NC1CCCCC1)c1nc(-c2ccc(Cl)cc2Cl)n(-c2ccc(Br)cc2)c1CO` and give its measured Ki.
A: 4.6

Q: Record request: Ki value, item `Cc1c(C(=O)NN2CCCCC2)nc(-c2ccc(Cl)cc2Cl)n1-c1ccc(Br)cc1`
A: 11.5

----------
TESTED TARGET: CB1 cannabinoid receptor (Rattus norvegicus, UniProt P20272)
Construct: membranes were prepared from rat forebrain membranes; from tissue; host or cells: rat forebrain membranes
ASSAY PROCEDURE: biochemical
Format: binding
PARTICULARS: Table 8; CB1 over CB2 binding selectivity (ratio of Ki)
Kind request: treat 30 as inclusive, so Selectivity CB1 at 30 or higher is 1, anything lower is -1.

Study these solved cases before continuing.
[
  {
    "COMPOUND": "N#CCCC#Cc1ccc(-c2c(CO)c(C(=O)NN3CCCCC3)nn2-c2ccc(Cl)cc2Cl)cc1",
    "LABEL": 1
  },
  {
    "COMPOUND": "Cc1c(C(=O)N(C)C2CCCCC2)nc(-c2ccc(Cl)cc2Cl)n1-c1ccc(C#CCO)cc1",
    "LABEL": -1
  },
  {
    "COMPOUND": "O=C(NN1CCCCC1)c1nn(-c2ccc(Cl)cc2Cl)c(-c2ccc(C#CCO)cc2)c1CO",
    "LABEL": -1
  },
  {
    "COMPOUND": "Cc1c(C(=O)NN2CCCCC2)nn(-c2ccc(Cl)cc2Cl)c1-c1ccc(C#CCCCCO)cc1",
    "LABEL": 1
  },
  {
    "COMPOUND": "Cc1c(C(=O)NN2CCCCC2)nn(-c2ccc(Cl)cc2Cl)c1-c1ccc(C#CCN=[N+]=[N-])cc1",
    "LABEL": 1
  }
]

Q: For this compound, is measured Selectivity CB1 30 or higher? `O=C(NN1CCCCC1)c1nn(-c2ccc(Cl)cc2Cl)c(-c2ccc(C#CCCO)cc2)c1CO`
A: -1

Q: Evaluate `Cc1c(C(=O)N(C)C2CCCCC2)nc(-c2ccc(Cl)cc2Cl)n1-c1ccc(C#CCN=[N+]=[N-])cc1` : Selectivity CB1 at minimum 30?
A: 1

Q: Tell me whether Selectivity CB1 is at least 30 here: `N#CCCC#Cc1ccc(-n2c(-c3ccc(Cl)cc3Cl)nc(C(=O)NN3CCCCC3)c2CO)cc1`
A: 1

Q: Would you say `Cc1c(C(=O)N(C)C2CCCCC2)nc(-c2ccc(Cl)cc2Cl)n1-c1ccc(C#CCCO)cc1` shows Selectivity CB1 at minimum 30?
A: 1

Q: Is Selectivity CB1 for `Cc1c(C(=O)NN2CCCCC2)nn(-c2ccc(Cl)cc2Cl)c1-c1ccc(C#CCCCO)cc1` at or above 30?
A: 1

Q: Record Cc1c(C(=O)NN2CC3CCCC3C2)nn(-c2ccc(Cl)cc2Cl)c1-c1ccc(C#CCCO)cc1 (centres unmarked) ; criterion: Selectivity CB1 no lower than 30. Met?
A: -1

----------
This section presents molecules with their documented Ki values.
TESTED TARGET: CB1 cannabinoid receptor (Rattus norvegicus, UniProt P20272)
Construct: membranes were prepared from rat forebrain membranes; from tissue; host or cells: rat forebrain membranes
ASSAY PROCEDURE: biochemical
Type: binding
PARTICULARS: CB1 Ki, Table 7; rat forebrain membranes, 0.8 nM [3H] CP-55,940
Quick note: give the figure in nM, leave out the unit.

Use these answered entries as a reference point.
[
  {
    "SMILES TEXT": "Cc1c(C(=O)NN2CCCCC2)nn(-c2ccc(Cl)cc2Cl)c1-c1ccc(C#CCCO)cc1",
    "OBSERVABLE": "Ki",
    "RESULT VALUE": 19.7
  },
  {
    "SMILES TEXT": "Cc1c(C(=O)NN2CCCCC2)nn(-c2ccc(Cl)cc2Cl)c1-c1ccc(C#CCO)cc1",
    "OBSERVABLE": "Ki",
    "RESULT VALUE": 33.1
  }
]

--- query ---
Q: # get_value(readout='Ki', item= `Cc1c(C(=O)NN2CCCCC2)nn(-c2ccc(Cl)cc2Cl)c1-c1ccc(C#CCCC#N)cc1` )
A: 0.35

----------
TESTED TARGET: CB2 cannabinoid receptor (Mus musculus)
Sequence (P47936 whole entry): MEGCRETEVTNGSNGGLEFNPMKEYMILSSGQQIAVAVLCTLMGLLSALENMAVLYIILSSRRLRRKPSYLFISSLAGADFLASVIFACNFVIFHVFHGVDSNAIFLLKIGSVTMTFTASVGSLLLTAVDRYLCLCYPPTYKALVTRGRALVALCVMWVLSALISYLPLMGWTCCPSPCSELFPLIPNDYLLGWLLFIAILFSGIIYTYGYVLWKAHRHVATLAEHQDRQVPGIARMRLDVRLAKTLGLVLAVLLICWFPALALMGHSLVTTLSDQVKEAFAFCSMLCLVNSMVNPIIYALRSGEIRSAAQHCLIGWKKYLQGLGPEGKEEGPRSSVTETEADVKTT
ASSAY PROCEDURE: biochemical
Assay type: binding
PARTICULARS: Table 6; mouse spleen membranes, [3H] CP-55,940; read-out: CB2 Ki
So basically, if Ki comes in under 2000 nM it's Y, and if it's 2000 nM or more it's N.

Q: Record `CN(C(=O)c1nc(-c2ccc(Cl)cc2Cl)n(-c2ccc(-c3nnn(C)n3)cc2)c1CO)C1CCCCC1` : is its Ki strictly below 2000 nM?
A: Y

Q: Could you please tell me whether Ki recorded for `Cc1c(C(=O)NN2CCCCC2)nc(-c2ccc(Cl)cc2Cl)n1-c1ccc(C#CCCO)cc1` is less than 2000 nM?
A: N

Q: Identify whether the compound `Cc1c(C(=O)NN2CCCCC2)nc(-c2ccc(Cl)cc2Cl)n1-c1ccc(-c2cccnc2)cc1` records Ki below 2000 nM.
A: N

Q: Given `Cc1c(C(=O)NN2CCCCC2)nc(-c2ccc(Cl)cc2Cl)n1-c1ccc(I)cc1` , is recorded Ki strictly lower than 2000 nM?
A: N

Q: Is 2000 nM strictly greater than the compound's reported Ki? compound: `Cc1c(C(=O)NN2CCCCC2)nc(-c2ccc(Cl)cc2Cl)n1-c1ccc(C#CCO)cc1`
A: Y

Q: Given the entry `Cc1c(C(=O)N(C)C2CCCCC2)nc(-c2ccc(Cl)cc2Cl)n1-c1ccc(-c2nnn[nH]2)cc1` , would its reported Ki be below 2000 nM?
A: N

Q: Field: below-cutoff. Rule: recorded Ki strictly less than 2000 nM. Subject: `O=C(NN1CCCCC1)c1nc(-c2ccc(Cl)cc2Cl)n(-c2ccc(-c3nccs3)cc2)c1CO`
A: Y

Q: Would you kindly verify if Ki of `N=C(S)c1ccc(-n2c(-c3ccc(Cl)cc3Cl)nc(C(=O)NN3CCCCC3)c2CO)cc1` is strictly less than 2000 nM?
A: Y

Q: Is Ki strictly under 2000 nM for the entry `Cc1c(C(=O)N2CCCCC2)nc(-c2ccc(Cl)cc2Cl)n1-c1ccc(Br)cc1` ?
A: N

Q: Take the compound `CN(C(=O)Nc1nc(-c2ccc(Cl)cc2Cl)n(-c2ccc(Br)cc2)c1CO)C1CCCCC1` and say whether its Ki is less than 2000 nM.
A: Y

Q: Find out if reported Ki for `O=C(NN1CCCCC1)c1nc(-c2ccc(Cl)cc2Cl)n(-c2ccc(I)cc2)c1CO` is less than 2000 nM
A: Y

Q: State whether 2000 nM exceeds Ki recorded for `Cc1c(NC(=O)NC2CCCCC2)nc(-c2ccc(Cl)cc2Cl)n1-c1ccc(I)cc1` .
A: N

Q: Below 2000 nM on Ki? Entry `Cn1nnnc1-c1ccc(-n2c(-c3ccc(Cl)cc3Cl)nc(C(=O)NN3CCCCC3)c2CO)cc1`
A: N

Q: Would you kindly verify if Ki of `O=C(NC1CCCCC1)c1nc(-c2ccc(Cl)cc2Cl)n(-c2ccc(Br)cc2)c1CO` is strictly less than 2000 nM?
A: N

Q: Could you please tell me whether Ki recorded for `Cc1c(C(=O)NN2CCCCC2)nc(-c2ccc(Cl)cc2Cl)n1-c1ccc(-c2nnn(C)n2)cc1` is less than 2000 nM?
A: N

----------
TESTED TARGET: UniProtKB P47936
ASSAY PROCEDURE: biochemical
Format: binding
PARTICULARS: Table 8; mouse spleen membranes; read-out: Receptor Affinities Ki (nM) CB2
Label scheme for Ki: low bracket = under 200 nM, middle bracket = from 200 nM up to 300 nM, high bracket = 300 nM and over

[
  {
    "COMPOUND": "O=C(NN1CCCCC1)c1nn(-c2ccc(Cl)cc2Cl)c(-c2ccc(C#CCCO)cc2)c1CO [Compound 3-2]",
    "LABEL": "low bracket"
  }
]

Q: Assign a bin to Cc1c(C(=O)N(C)C2CCCCC2)nc(-c2ccc(Cl)cc2Cl)n1-c1ccc(C#CCN=[N+]=[N-])cc1 [Compound 3-11]
A: low bracket

Q: Dear colleague, I would appreciate it if you could identify the bin for N#CCCC#Cc1ccc(-n2c(-c3ccc(Cl)cc3Cl)nc(C(=O)NN3CCCCC3)c2CO)cc1 [Compound 3-10] and reply at your convenience.
A: middle bracket

Q: Returns: class label. Input: Cc1c(C(=O)NN2CCCCC2)nn(-c2ccc(Cl)cc2Cl)c1-c1ccc(C#CCN=[N+]=[N-])cc1 [Compound 3-3]
A: high bracket

Q: Tag the class for Cc1c(C(=O)NN2CCCCC2)nn(-c2ccc(Cl)cc2Cl)c1-c1ccc(C#CCCCCO)cc1 [Compound 3-7]
A: low bracket

Q: Exercise: read the entry Cc1c(C(=O)NN2CCCCC2)nn(-c2ccc(Cl)cc2Cl)c1-c1ccc(C#CCCCO)cc1 [Compound 3-5] and state which class it falls under.
A: low bracket

Q: # bin label for N#CCCC#Cc1ccc(-c2c(CO)c(C(=O)NN3CCCCC3)nn2-c2ccc(Cl)cc2Cl)cc1 [Compound 3-1]
A: middle bracket

Q: Sort Cc1c(C(=O)N(C)C2CCCCC2)nc(-c2ccc(Cl)cc2Cl)n1-c1ccc(C#CCO)cc1 [Compound 3-9] into one of the categories.
A: middle bracket

Q: // return the class label for O=C(NN1CCCCC1)c1nn(-c2ccc(Cl)cc2Cl)c(-c2ccc(C#CCO)cc2)c1CO [Compound 3-4]
A: high bracket
